Overview of recorded Inhibition for various compounds
test system: Plasmodium falciparum; test: GSK_TCMDC: Inhibition of Plasmodium falciparum Dd2 in whole red blood cells, using parasite LDH activity as an index of growth. Test compounds present at 2uM; type: functional

compound | tested-on | Inhibition / %
CNS(=O)(=O)c1ccc2c(c1)nc(C1CCN(CC3CCC(NC(=O)/C=C/c4ccc(Cl)c(Cl)c4)CC3)CC1)n2C (stereo not drawn) | Plasmodium falciparum | 96
CCN(CC)CCCNc1nccc(N(C)c2ccc(NC(=O)Nc3cc(C(F)(F)F)ccc3F)cc2)n1.O=C(O)C(F)(F)F | Plasmodium falciparum | 19
FC(F)(F)c1ccc2[nH]c(-c3cccc(-c4cccc(CNCC5CCCO5)c4)c3)nc2c1.O=C(O)C(F)(F)F (stereo not drawn) | Plasmodium falciparum | 96
C[C@H](CNc1ccnc(Nc2ccc3[nH]c(=O)[nH]c3c2)n1)c1ccccc1 | Plasmodium falciparum | 2
CN(CCCCNC(=O)c1cc2ccccc2[nH]1)C1CC2(CCN(C(=O)OC(C)(C)C)CC2)c2ccccc21 (stereo not drawn) | Plasmodium falciparum | 75
CC(C)(CNCc1ccc(Cl)c(Cl)c1)c1nc(-c2ccc(Cl)c(O)c2)c(-c2ccncc2)[nH]1.Cl | Plasmodium falciparum | 97
Cn1c(Sc2ncnc3sccc23)nc2ccccc21 | Plasmodium falciparum | 100
CCc1ccc(NC(=O)c2ccc(CN3CCCN(CCC(C)C)CC3)cc2)cc1.O=C(O)C(F)(F)F | Plasmodium falciparum | 25
O=C(Nc1cccc(CN2CCCN(Cc3ccc(O)cc3)CC2)c1)c1cccc(F)c1.O=C(O)C(F)(F)F | Plasmodium falciparum | 4
O=C(C=Cc1ccc(-c2ccccc2)cc1)N1CCC(CCN2CCC(c3c[nH]c4ccccc34)CC2)CC1 | Plasmodium falciparum | 16
N#Cc1cccc(NC(=O)Nc2cccc(OC3CCN(Cc4ccccc4)CC3)c2)c1.O=C(O)C(F)(F)F | Plasmodium falciparum | 48
COc1ccc2nc3cc(Cl)ccc3c(NCCCCCCNc3c4ccc(Cl)cc4nc4ccc(OC)cc34)c2c1.Cl.Cl.Cl.Cl | Plasmodium falciparum | 79
COc1ccc2c(N/N=C/c3cccc([N+](=O)[O-])c3)cc(C)nc2c1 | Plasmodium falciparum | 97
O=C(/C=C/c1ccc(Cl)cc1Cl)NCCCCCN1CCC(c2c[nH]c3ccccc23)CC1 | Plasmodium falciparum | 9
CCC(C)NS(=O)(=O)c1ccc2nc(Nc3ccc(C)c(Cl)c3)n(C(C)C(C)C)c2c1 (stereo not drawn) | Plasmodium falciparum | 98
CCCCCCCN1CC[C@@H](CCCc2ccnc3ccc(OC)cc23)[C@@H](CNC)C1.O=C(O)C(=O)O | Plasmodium falciparum | 95
Cc1noc(C)c1-c1ccc2c(Nc3ccccc3C(C)(C)C)c(C(=O)NCc3ccc4c(c3)OCO4)cnc2c1.Cl | Plasmodium falciparum | 88
CC(C)(C)CC(C)(C)c1ccc(O)c(C(=O)Nc2ccc([N+](=O)[O-])cc2)c1 | Plasmodium falciparum | 99

* * *

Overview of recorded Inhibition for various compounds
system: Plasmodium falciparum; experiment: GSK_TCMDC: Inhibition of Plasmodium falciparum 3D7 in whole red blood cells, using parasite LDH activity as an index of growth. Test compounds present at 2uM; type: functional

compound | result-units | Inhibition
Cl.O=C(Nc1ccc(SC(F)(F)F)cc1)Nc1ccnc2ccccc12 | % | 95
CC1Cc2ccccc2N1CC(=O)Nc1cc(C(F)(F)F)ccc1-n1cncn1 (centres undefined) | % | 97
COc1cc2c(c(OC)c1[N+](=O)[O-])C=CC1(O2)N(C)c2ccc([N+](=O)[O-])cc2C1(C)C (centres undefined) | % | 92
CC[C@H]1CN2CCc3cc(OC)c(OC)cc3[C@@H]2C[C@@H]1C[C@H]1NCCc2cc(OC)c(OC)cc21 | % | 100
CCCOc1ccc(C(=O)Nc2nonc2-c2ccc(OC)c(OC)c2)cc1 | % | 99
Cc1cccc2nc(-c3cccc(-c4cccc(NC(=O)CNC(=O)c5ccc(O)cc5)c4)c3)[nH]c12 | % | 94
COc1c(C2CCN(CCCCNC(=O)c3cc(-c4ccc(Cl)cc4)sc3C)CC2)ccc2c1CCCC2 | % | 100
NCC1CCCN1Cc1ccc(-c2cccc(-c3nc4cc(C(F)(F)F)ccc4[nH]3)c2)cc1.O=C(O)C(F)(F)F (centres undefined) | % | 99
COc1cc2c(cc1OC)C(C(=O)c1ccccc1)=NCC2.Cl | % | 85
CCOc1ccc(Br)cc1/C=C/C(=O)Nc1ccc(C2CCN(C)CC2)cc1 | % | 100
CCn1c(SCc2ccccc2)nc2c1c(=O)[nH]c(=O)n2C | % | 96
Cc1cc(N(C)C2CCN(CC3CCCCC3)C2)nc(Nc2ccc(Br)cc2)n1 (centres undefined) | % | 98
CC(C)c1ccc(CN(C)CCCCNC(=O)c2ccc(NC(=O)c3ccc(Cl)cc3)cc2)cc1 | % | 92
N#Cc1ccc(CN2CCC(Oc3ccc(NC(=O)c4ccsc4)cc3Cl)C2)cc1.O=C(O)C(F)(F)F (centres undefined) | % | 88
Cl.Nc1ccc(Nc2ccnc3ccc(C(F)(F)F)cc23)cc1O | % | 98
Nc1nonc1-c1nc2c(-c3cccc(Cl)c3)nccc2n1CCCNC(=O)Cc1ccc(Cl)cc1 | % | 94
O=C(O)/C=C\C(=O)O.c1ccc(COc2ccnc(NCCCOc3cccc(CN4CCCCC4)c3)c2)cc1 | % | 100
COC(=O)c1ccc(Nc2nccc(Nc3ccc(Oc4ccccc4)cc3)n2)cc1.Cl | % | 93
CC(C)c1ccc2c(c1)C(=O)c1ccc(C(=O)O)cc1S2(=O)=O | % | 93

* * *

tested on: HepG2; test: GSK_TCMDC: Percent inhibition of human HepG2 cell line. Test compounds present at 10uM.; assay type: functional
Overview of recorded Inhibition for various compounds

compound | Inhibition
O=C(CSc1nnc(-c2ccccc2Br)[nH]1)c1c[nH]c2ccccc12 | 7%
CCn1c(-c2nonc2N)nc2c(-c3cccc(NC(=O)Nc4ccc(Cl)cc4)c3)ncc(OCCCN)c21.O=C(O)C(F)(F)F | 26%
COc1cccc2c(NN=Cc3cccc(Cl)c3)ccnc12 | 19%
CC1(C)N=C(N)N=C(N)N1OCCCc1ccccc1.Cl | 64%
Cl.FC(F)(F)c1cc(CNCCCNc2nc3ccncc3[nH]2)ccc1Cl | 11%
CC(C)C(=O)NC(c1ccc(Cl)cc1)c1ccc2cccnc2c1O (centres undefined) | 53%
O=C(/C=C/c1ccccc1Cl)Nc1ccc(Br)c(OCCN2CCCCC2)c1.O=C(O)C(=O)O | 11%
COc1ccc(CCC(C)N2CC(N)C(c3cn(C)c4cnccc34)C2)cc1.Cl (centres undefined) | 5%
O=C(Nc1cccc(Cl)c1Cl)NC1CCN(Cc2cccc(O)c2)CC1.O=C(O)C(F)(F)F | 1%
CCOc1cc(CC)ccc1C1CCN(CCN2CCC(NC(=O)c3ccc(-c4ccc(C(C)=O)cc4)cc3)CC2)CC1 | 25%
Cc1cccn2c(=O)c3cc(C(=O)NC4CCCCC4)c(=N)n(CCCn4ccnc4)c3nc12 | 1%
CCOC(=O)c1ccc2[nH]c(-c3ccc(C(=O)NC4CCN(Cc5ccccc5)CC4)s3)nc2c1 | 32%
CCNC(=O)c1ccc(-n2nc(C)cc2-c2ccccc2)cc1 | 11%
N#Cc1cccc(CN(Cc2ccc(Cl)c(Cl)c2)S(=O)(=O)c2cccc([N+](=O)[O-])c2)c1 | 3%
CO/C(=C\C=C\c1cc2cc(Cl)c(Cl)cc2[nH]1)C(=O)NCCCN(C)CCN(C)c1ccccc1 | 38%
Cc1cc(N[C@@H](Cc2ccccc2)C(=O)NCc2cccc(F)c2)nc(NCc2ccccc2C)n1.O=C(O)C(F)(F)F | 6%
O=C(/C=C/c1ccc(Cl)c(Cl)c1)NCCCCCN1CCN(C(=O)Nc2ccc(Cl)c(C(F)(F)F)c2)CC1 | 22%
Nc1ccc2[nH]cc(C3CCN(CC4CCN(C(=O)/C=C/c5ccc(Cl)c(Cl)c5)CC4)CC3)c2n1 | 53%
O=C(Nc1cccc(-c2cccc(-c3nc4cc(C(F)(F)F)ccc4[nH]3)c2)c1)Nc1ccc(F)c(F)c1F | 71%

* * *

system: HepG2; test: GSK_TCMDC: Percent inhibition of human HepG2 cell line. Test compounds present at 10uM.; format: functional

compound | tested-on | Inhibition [%]
CC=Cc1cc(Cc2c[nH]c(=N)[nH]c2=N)cc(CCC)c1OC | HepG2 | 16
Cc1c(S(=O)(=O)Nc2ccc3nccc(N4CC(C)NC(C)C4)c3c2)sc2ccc(Cl)cc12.Cl (centres undefined) | HepG2 | 0
CS(=O)(=O)O.NC1=NC(CCc2ccccc2)N(c2ccccc2)C(N)=N1 (centres undefined) | HepG2 | 1
Cc1nnsc1C(=O)Nc1cccc(-c2csc(-c3nc4ccccc4[nH]3)c2)c1 | HepG2 | 51
CN(C)CC(=O)N(Cc1ccc(Cl)c(Cl)c1)Cc1csc(-c2ccc(CNCc3ccccc3)cc2)n1.O=C(O)C(F)(F)F | HepG2 | 30
Cc1[nH]c(C)c(-c2ccc(OCCn3cnc(Cl)c3Cl)cc2)c(=O)c1Br | HepG2 | 2
COc1ccc(CCNc2nc(N)c3cc(OC)c(OC)cc3n2)cc1.Cl | HepG2 | 16
Cc1cnc(-c2ccc(NC(=O)c3coc4ccc(N5CC(C)N(C)C(C)C5)cc34)cc2)o1.Cl (centres undefined) | HepG2 | 18
CC(C)(C)CC(C)(C)c1ccc(O)c(C(=O)Nc2cccc([N+](=O)[O-])c2)c1 | HepG2 | 49
